molecular target: T1, human PD-1 expressed on cells (human, UniProt Q15116 25-288); experiment: flow cytometry, activated PBMC donor two
T1 construct: whole, on cells
T1 sequence (Q15116 25-288): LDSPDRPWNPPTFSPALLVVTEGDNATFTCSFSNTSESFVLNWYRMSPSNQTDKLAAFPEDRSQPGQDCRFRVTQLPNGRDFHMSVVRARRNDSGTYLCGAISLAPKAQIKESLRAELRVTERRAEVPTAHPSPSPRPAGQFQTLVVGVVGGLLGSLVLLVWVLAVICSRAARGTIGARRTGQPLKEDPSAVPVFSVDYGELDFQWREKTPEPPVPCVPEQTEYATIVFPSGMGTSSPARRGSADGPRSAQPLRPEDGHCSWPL
Readout Name: pEC50
Hey, just a heads up that pEC50 is the negative log base 10 of the concentration in molar.

Briefly, pEC50 measured for 38B2 (antibody, V domains shown, 24H9 derivative, IgG; also called 780_54; hPD1 Ab (38B2)) VH: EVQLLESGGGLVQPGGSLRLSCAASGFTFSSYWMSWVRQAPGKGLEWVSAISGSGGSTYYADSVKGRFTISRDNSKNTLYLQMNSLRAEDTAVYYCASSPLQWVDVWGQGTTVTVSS VL: DIQMTQSPSSLSASVGDRVTITCRASESISSWLAWYQQKPGKAPKLLIYDASSLESGVPSRFSGSGSGTDFTLTISSLQPEDFATYYCQQGDSFPFTFGQGTKLEIK : 10.00

Entry source: patent US20230416363A1
